Listing: melting point of selected compounds

Below: 4 compounds and their reported melting point.
| compound | melting point |
| --- | --- |
| COC1=CC2[C@@H]3[C@H](Sc4ccccc4)c4ccc(O)c(O)c4[C@]2(CCN3C)CC1=O (some centres unmarked) | 210 to 212 °C (dec.) |
| COC1=CC2[C@@H]3[C@H](OC)c4ccc(OC)c(O)c4[C@]2(CCN3C)CC1=O (some centres unmarked) | 201 to 203 °C (dec.) |
| COC1=CC2[C@@H]3[C@H](OC(C)=O)c4ccc(OC(C)=O)c(OC(C)=O)c4[C@]2(CCN3C)CC1=O (some centres unmarked) | 198 to 199 °C |
| COC1=C[C@@H]2[C@@H]3[C@H](Sc4ccc(C)cc4)c4ccc(O)c(O)c4[C@]2(CCN3C)CC1=O | 224 to 225 °C (dec.) |

Turning to the following compound.
Please supply the value of reported melting point for the item COC1=CC2[C@@H]3[C@H](Sc4ccc(C(C)(C)C)cc4)c4ccc(O)c(O)c4[C@]2(CCN3C)CC1=O (some centres unmarked) 232 to 233 °C (dec.)

Ref: patent US8557837B2
